Kindly supply the reported MIC values for the records listed here.
target: H1 hemagglutinin (A/Puerto Rico/8/34) (influenza A virus A/Puerto Rico/8/34 (H1N1)) (UniProt P03452); assay: cell-based or functional assay

The cases that follow already have their MIC on record.
| BINDER | MIC |
| --- | --- |
| Ab 004 (antibody, V domains shown) VH: QVQLLETGGGLVKPGQSLKLSCAASGFTFTSYAMHWVRQPPGKGLEWVAVVSYDGNYKYYADSVQGRFTISRDNSKNTLYLQMNSLRAEDTAVYYCAKDSRLRSLLYFEWLSQGYFNPWGQGTTLTVSS VL: DIVMTQSPDTLAVTLGERATIQCKSSQTVTFNYKNYLAWYQQKPGQPPKLLIYWASTRESGVPDRFSGSGSGTDFTLTITSLQAEDVAVYYCQQHYRTPPSFGQGTKLDIK | 12 µg/mL |
| Ab 031 (antibody, V domains shown) VH: EVQLLESGGGLVKPGQSLKLSCAASGFTFTSYAMHWVRQPPGKGLEWVAVVSYDGNYKYYADSVQGRFTISRDNSKNTLYLQMNSLRAEDTAVYYCAKDSRLRSLLYFEWLSQGYFNPWGQGTTLTVSS VL: DIQMTQSPSSLSASVGDRVTITCRSSQSITFNYKNYLAWYQQKPGKAPKLLIYWGSYLESGVPSRFSGSGSGTDFTLTISSLQPEDFATYYCQQHYRTPPSFGQGTKVEIK | 1 µg/mL |
| Ab 038 (antibody, V domains shown) VH: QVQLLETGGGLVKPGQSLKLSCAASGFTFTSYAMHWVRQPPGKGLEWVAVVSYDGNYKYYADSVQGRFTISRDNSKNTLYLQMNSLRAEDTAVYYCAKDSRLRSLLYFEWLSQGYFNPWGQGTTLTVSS VL: DIQMTQSPSSLSASVGDRVTITCRSSQSITFNYKNYLGWYQQKPGKAPKLLIYWGSYLESGVPSRFSGSGSGTDFTLTISSLQPEDFATYYCQQHYRTPPSFGQGTKVEIK | 2 µg/mL |
| Ab 037 (antibody, V domains shown) VH: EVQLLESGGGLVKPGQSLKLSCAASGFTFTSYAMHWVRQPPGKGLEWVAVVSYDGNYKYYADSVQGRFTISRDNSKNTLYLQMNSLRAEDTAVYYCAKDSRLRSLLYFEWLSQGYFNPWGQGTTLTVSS VL: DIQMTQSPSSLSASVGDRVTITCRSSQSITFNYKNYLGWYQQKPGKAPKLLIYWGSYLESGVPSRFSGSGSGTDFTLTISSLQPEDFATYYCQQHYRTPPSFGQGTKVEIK | 4 µg/mL |

-- ask I would be grateful if you could share the reported MIC for Ab 005 (antibody, V domains shown) VH: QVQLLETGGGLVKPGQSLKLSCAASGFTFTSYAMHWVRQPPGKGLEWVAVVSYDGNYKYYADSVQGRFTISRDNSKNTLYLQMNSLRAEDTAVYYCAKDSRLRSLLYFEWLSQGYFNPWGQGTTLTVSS VL: DIVMTQSPDTVAVTVGERATINCKSSQTVTFNYKNYLAWYQQKPGQPPKLLIYWASTRESGVPDRFSGSGSGTDFTLTISSLQAEDVAVYYCQQHYRTPPSFGQGTKLDIK .
-- reply 10 µg/mL
